Test system: XF498
Assay: NCI tumour cell line growth inhibition, 48 h
The source made the active and inactive calls. Cut-off read from the data, not from the text of the source: active = GI50 up to about 1.1 µM and inactive = higher.
Overview of recorded GI50 for various molecules

CC(C)(C)c1ccc(C(O)c2ccc(C(C)(C)C)cc2)cc1; 15.1 µM (inactive)
CCOC(=O)C1S/C(=N\c2ccccc2)N=C1C (stereo not drawn); > 100 µM (inactive)

Input line: Entry under review: O=C1NC2OCC(O)C(O1)C2O (stereo not drawn) . Reported GI50?
Output line: > 100 µM (inactive)

* * *

Test system: HCC 2998
Experiment: NCI tumour cell line growth inhibition, 48 h
Activity calls are given as the source filed them. Cut-off read from the data, not from the text of the source: active = GI50 up to about 1.1 µM and inactive = higher.
Overview of recorded GI50 for various molecules

Field: example entries. Status: answers known.
N#C/C(=C\c1ccc(O)c(O)c1)C(=O)NC1CCC(CC2CCC(NC(=O)/C(C#N)=C/c3ccc(O)c(O)c3)CC2)CC1 (configuration not stated); 2.24 µM (inactive)
CCCCc1c2cnccc2c(CCCC)c2c1[nH]c1ccccc12; 23.9 µM (inactive)
Cc1nc2n(c1/C=C1/C(=O)Nc3cccc(Cl)c31)CCS2; > 100 µM (inactive)
COc1ccc(-n2c(C)nc3ccc(NC4OCC(O)C(O)C4O)cc3c2=O)cc1 (configuration not stated); > 100 µM (inactive)

Input line: Form field: GI50 recorded for NC(Cc1ccnnc1)C(=O)O (configuration not stated) with HCC 2998 (enter value)
Output line: > 100 µM (inactive)

Input line: Form field: GI50 recorded for "Nc1nc(Cl)cc(OCC2(CO)CCCCC2)n1" with HCC 2998 (enter value)
Output line: 24.8 µM (inactive)

Input line: Form field: GI50 recorded for C=C1COC(/C=C(\C)CC/C=C(\C)CCl)C1 (configuration not stated) with HCC 2998 (enter value)
Output line: > 100 µM (inactive)

* * *

Overview of recorded GI50 for various compounds
System: U-251
Assay: NCI tumour cell line growth inhibition, 48 h
Calls of active or inactive are those of the source. No stated cut-off is given here; in the data, active = GI50 up to about 1.1 µM and inactive = higher.

Field: example entries. Status: answers known.
O=CCOCc1cc2c(cc1Br)OCO2; 31 µM (inactive)
CCOC(=O)C(NC(=O)c1ccccc1)(Nc1ccc(Cl)cc1C(F)(F)F)C(F)(F)F (configuration not stated); 3.74 µM (inactive)
O=C1c2ccccc2C(=O)N1CC1(C(=O)O)NCCS1(=O)=O (configuration not stated); > 100 µM (inactive)

Input line: Form field: GI50 recorded for "Nc1nc(Cl)cc(NCCCCCCCCCCNc2cc(Cl)nc(N)n2)n1" with U-251 (enter value)
Output line: 4.21 µM (inactive)

Input line: Form field: GI50 recorded for "Cc1cc(NS(=O)(=O)c2ccc(Nc3c4ccccc4nc4c(C(=O)N5CCN(CCOS(C)(=O)=O)CC5)cccc34)cc2)no1" with U-251 (enter value)
Output line: > 100 µM (inactive)

Input line: Form field: GI50 recorded for "BrP(NC1CCCCCC1)(c1ccccc1)(c1ccccc1)c1ccccc1" with U-251 (enter value)
Output line: 3.55 µM (inactive)

Input line: Form field: GI50 recorded for "NC(=O)CN1CCN(c2nc(N3CCCC3)c3nc(Cl)c(NCc4ccccc4)nc3n2)CC1" with U-251 (enter value)
Output line: 8.59 µM (inactive)

* * *

Test system: 786-0
Assay: NCI tumour cell line growth inhibition, 48 h
Activity calls are given as the source filed them. Rule as the data show it: active = GI50 up to about 1.1 µM and inactive = higher.
Please reply with one of these outcomes: T for active, F for inactive

These recorded examples may help you get a feel for the data.
CC1=C(C)C2(C#N)C(=O)N3C(=NC(c4ccco4)NC3c3ccco3)C2(C#N)C(c2ccco2)N1 (stereo not drawn); F
COc1cc2ccc1OCc1cccc(n1)COc1ccc(cc1OC)/C=N\c1ccc(cc1)/N=C\2; F
COC1C(OC(=O)/C=C/C=C/C=C/C=C\C(=O)O)CCC2(CO2)C1C1(C)OC1CC=C(C)C (stereo not drawn); F

Input line: Please state the recorded outcome for this compound: C=C1C(=O)O[C@@H]2C[C@@]3(C)[C@H](O)CCC(=C)[C@@H]3C[C@H]12 [ASPERILIN]
Output line: F
